- Species: Rattus norvegicus
- Assay Protocol: Efficacy in T-cell mediated inflammatory response by delayed type hypersensitivity model in Sprague-Dawley rat
- Assay type: functional
Hi there, I'd appreciate the recorded ED50 for every entry that follows.
Response body: numeric value in mg/kg, unit text excluded.

Specify measured ED50 for CO[C@H]1C[C@@H]2CC[C@@H](C)[C@@](O)(O2)C(=O)C(=O)N2CCCC[C@H]2C(=O)OC([C@H](C)C[C@@H]2CC[C@@H](OC(=O)N(C)OC)[C@H](OC)C2)CC(=O)[C@H](C)/C=C(\C)[C@@H](O)[C@@H](OC)C(=O)[C@H](C)C[C@H](C)/C=C/C=C/C=C/1C (some centres undefined) .
0.4

Specify measured ED50 for `CO[C@H]1C[C@@H]2CC[C@@H](C)[C@@](O)(O2)C(=O)C(=O)N2CCCC[C@H]2C(=O)O[C@H]([C@H](C)C[C@@H]2CC[C@@H](O)[C@H](OC)C2)CC(=O)[C@H](C)/C=C(\C)[C@@H](O)[C@@H](OC)C(=O)[C@H](C)C[C@H](C)/C=C/C=C/C=C/1C` .
0.5

Specify measured ED50 for `CO[C@H]1C[C@@H]2CC[C@@H](C)[C@@](O)(O2)C(=O)C(=O)N2CCCC[C@H]2C(=O)O[C@H]([C@H](C)C[C@@H]2CC[C@H](n3ncnn3)[C@H](OC)C2)CC(=O)[C@H](C)/C=C(\C)[C@@H](O)[C@@H](OC)C(=O)[C@H](C)C[C@H](C)/C=C/C=C/C=C/1C` .
2

Specify measured ED50 for `CO[C@H]1C[C@@H]2CC[C@@H](C)[C@@](O)(O2)C(=O)C(=O)N2CCCC[C@H]2C(=O)O[C@H]([C@H](C)C[C@@H]2CC[C@H](n3cnnn3)[C@H](OC)C2)CC(=O)[C@H](C)/C=C(\C)[C@@H](O)[C@@H](OC)C(=O)[C@H](C)C[C@H](C)/C=C/C=C/C=C/1C` .
1.7
